In this section, each of the molecules is paired with its reported IC50.
Test system: SERT (Homo sapiens)
Sequence (P31645 whole entry, species assumed): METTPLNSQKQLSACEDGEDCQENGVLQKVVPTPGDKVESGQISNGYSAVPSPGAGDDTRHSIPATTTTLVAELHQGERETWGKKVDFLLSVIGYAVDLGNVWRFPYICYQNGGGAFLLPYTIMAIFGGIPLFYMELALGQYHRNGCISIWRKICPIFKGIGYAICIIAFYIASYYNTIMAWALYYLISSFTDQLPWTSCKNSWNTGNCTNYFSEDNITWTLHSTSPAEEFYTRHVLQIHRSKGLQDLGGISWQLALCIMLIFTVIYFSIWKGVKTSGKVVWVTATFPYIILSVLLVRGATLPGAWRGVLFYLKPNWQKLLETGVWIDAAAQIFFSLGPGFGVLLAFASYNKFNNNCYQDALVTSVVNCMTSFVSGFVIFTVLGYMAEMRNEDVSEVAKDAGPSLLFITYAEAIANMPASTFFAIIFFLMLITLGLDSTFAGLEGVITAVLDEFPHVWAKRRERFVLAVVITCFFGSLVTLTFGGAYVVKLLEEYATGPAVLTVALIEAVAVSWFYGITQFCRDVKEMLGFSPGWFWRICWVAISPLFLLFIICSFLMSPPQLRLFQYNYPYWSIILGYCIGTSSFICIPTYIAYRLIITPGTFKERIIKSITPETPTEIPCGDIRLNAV
Test details: fluorescence-based serotonin uptake assay (Tsuruda et al. 2010)
Assay type: cell-based
Particulars: serotonin reuptake inhibition, fluorescence-based assay (data indicated by an asterisk); read-out: SERT pIC50 (converted)

Worked examples follow.
Molecule: CCOC[C@H](Oc1ccc(C(F)(F)F)cc1Cl)[C@H]1CCNC1 [Example 7-19]
Test system: SERT (Homo sapiens)
IC50: ≤ 10 nM

Molecule: Cc1c(Cl)cccc1O[C@@H](COC(C)C)[C@@H]1CCNC1 [Example 9-14]
Test system: SERT (Homo sapiens)
IC50: ≤ 10 nM

Molecule: CCOC[C@H](Oc1cccc(F)c1Cl)[C@H]1CCNC1 [Example 7-9]
Test system: SERT (Homo sapiens)
IC50: ≤ 100 nM

Molecule: CC(C)SC[C@H](Oc1cccc(F)c1Cl)[C@H]1CCNC1 [Example 19-3]
Test system: SERT (Homo sapiens)
IC50: ≤ 10 nM

Molecule: CCOC[C@H](Oc1ccc(F)cc1Cl)[C@H]1CCNC1 [Example 7-18]
Test system: SERT (Homo sapiens)
IC50: ≤ 100 nM

Molecule: Cc1c(Cl)cccc1O[C@H](COC(C)C)[C@H]1CCNC1 [Example 9-15]
Test system: SERT (Homo sapiens)
IC50: ≤ 10 nM

Molecule: CC(C)SC[C@@H](Oc1cccc(Cl)c1Cl)[C@H]1CCNC1 [Example 19-2]
Test system: SERT (Homo sapiens)
IC50: ≤ 10 nM

Molecule: CC(C)OC[C@H](Oc1c(Cl)cccc1Cl)[C@H]1CCNC1 [Example 9-29]
Test system: SERT (Homo sapiens)
IC50: ≤ 100 nM

Can you look up the measured IC50 of Cc1cc(Cl)ccc1O[C@H](CO)[C@@H]1CCNC1 (stereo in doubt) [Example 1] for me?
≤ 10 nM
